Attribute: polymerase ribozyme fitness (log ratio)
B1: TPR t1 (parent)
chain: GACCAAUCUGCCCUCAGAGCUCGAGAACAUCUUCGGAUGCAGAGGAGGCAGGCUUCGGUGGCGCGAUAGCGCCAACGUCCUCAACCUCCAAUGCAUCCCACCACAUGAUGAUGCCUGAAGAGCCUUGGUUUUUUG

# Variants of: B1
# PROTOCOL: polymerase ribozyme fitness, log enrichment relative to wild type (log ratio); higher = more active; in vitro selection for triplet polymerase activity
Write the value as a bare number.

Consider the following illustrative entries.
C49A G113C G120U ... -4.69
G36C G110A ... -1.62

Next:
Bench note: what polymerase ribozyme fitness (log ratio) did C15U G51A C72G A121C show?
-2.34
